- Assay Text: Toxicity liver stage against HepG2, at 10uM
- Type: cell-based
- Parameters: test concentration 10 uM, cell line HepG2-A16-CD81EGFP
- Recorded Conditions: human, HepG2-A16-CD81EGFP cells; read-out: INHIBITION
Assign cytotoxicity at 10 µM to each entry below.
Kindly provide the numeric value in % only, without the unit symbol.

Per the record, CC(=O)Nc1nc(C(=O)N2CCCC2c2noc(C3CC3)n2)cs1 (configuration not stated) has cytotoxicity at 10 µM of -10.5

Just so you know, measured cytotoxicity at 10 µM for CCNC(=O)N1CCCC(c2noc(CC)n2)C1 (configuration not stated) came out at -2.45

Record O=C(c1ccco1)N1Cc2cnn(CC3CC3)c2C(COCC2CC2)C1 (configuration not stated) . Reported cytotoxicity at 10 µM: 4.04

For record Fc1ccccc1CN1C[C@@H](OCc2ccncc2)[C@H]2OCCC[C@H]21 the listed cytotoxicity at 10 µM is -4.81

Measured cytotoxicity at 10 µM of O=C(Nc1ccccn1)c1cncc(C2CCNCC2)n1 : -0.0757

Please fill in: cytotoxicity at 10 µM reported for O=C(N1CCCC1)N1C[C@@H]2CC[C@H]1CN(Cc1ccncc1)C2 = 4.63

cytotoxicity at 10 µM reading for O=C(c1ccc[nH]1)N1CCOCC12CCCC2 : 12.3

// sample Cc1n[nH]c(C)c1C1COCCN1C(=O)c1cc(Cl)c[nH]1 (configuration not stated) , its cytotoxicity at 10 µM was -4.12

Looking up Cc1cc(C)n(CC2CN(c3cnc4ccccc4n3)CCO2)n1 (configuration not stated) , I see its cytotoxicity at 10 µM listed as -2.42

Query CN(Cc1cc(Br)cn1C)C(=O)c1ccon1 yields cytotoxicity at 10 µM of -3.33

response.value for Fc1cnc(N2CC[C@@H](N3CCOCC3)[C@@H]2Cc2cccnc2)nc1 (field: cytotoxicity at 10 µM) = 11.7

For record CC(C)CC(=O)NCCn1nc(C2CCNC2)c2cccnc21 (configuration not stated) the listed cytotoxicity at 10 µM is -25

Memo: CCC(=O)NCC(=O)NC(C)c1sc(-c2ccccc2F)nc1C (configuration not stated) , reported cytotoxicity at 10 µM: 9.65

// cytotoxicity at 10 µM lookup, compound = O=C(NC[C@]1(O)CN(Cc2ncccc2F)C[C@H]1O)c1cc[nH]n1 , result: -6.07

So for COC(=O)C(NC(=O)c1cc(C)ccc1C)c1cccnc1 (configuration not stated) , the logged cytotoxicity at 10 µM turned out to be -39.7

cytotoxicity at 10 µM measured on CCCC12CN3CC(CCC)(CN(C1)C3c1[nH]c(=O)[nH]c(=O)c1C)C2=O (configuration not stated) = 4.17

// field: cytotoxicity at 10 µM; key: COc1ccc2c(c1)c(C(=O)Nc1nnn[nH]1)cn2C ; value = -1.33

====

- Assay Text: Toxicity liver stage against HepG2, at 10uM
- Format: cell-based
- Design: test concentration 10 uM, cell line HepG2-A16-CD81EGFP
- Recorded Conditions: human, HepG2-A16-CD81EGFP cells; read-out: INHIBITION
Measured Quantity: cytotoxicity at 10 µM (%)
Enter your answer as a number in %; do not include the unit.

Noted for Cc1cc(C)c(CNC(=O)N2CCN(c3cnccn3)CC2)c(=O)[nH]1 : its cytotoxicity at 10 µM reads -2.58

cytotoxicity at 10 µM for O=C(c1ccon1)N1CCc2ncnc(NCc3ccccn3)c2CC1 is 0.436

The value of cytotoxicity at 10 µM measured for the molecule CN(C)C(=O)N1C[C@H]2CC[C@@H](C1)N(Cc1nnc(-c3ccco3)o1)C2 turned out to be 5.9

The molecule Cc1nc([C@H]2C[C@@H]3CCN(Cc4ccc5c(c4)OCO5)C[C@H]3O2)no1 showed cytotoxicity at 10 µM equal to -110

Reported cytotoxicity at 10 µM of CCc1nc(C2CCCN2CCS(=O)(=O)c2ccccc2)no1 (stereo not given) : -8.1

Value source: ChEMBL document CHEMBL4513216
